# Tested on: recombinant rabies virus 1088 strain expressing Gaussia Luciferase (GLuc) (1088/GLuc)
# Type: cell-based
# condition.info: read-out: IC50
Measured pIC50 by item
Would you please state pIC50, meaning minus log10 of the concentration in mol/L, as a bare number?

Consider the reported pIC50 for these compounds:
INSERT INTO measurements (compound, measured_on, value_observed) VALUES
  ('CC(C)CN1C[C@H]2C[C@]3(C(=O)NCc4ccccc4)NC[C@H]2[C@H]1[C@H]3CCc1ccccc1 (relative stereo)', 'recombinant rabies virus 1088 strain expressing Gaussia Luciferase (GLuc) (1088/GLuc)', 4.76),
  ('CC(C)CN1C[C@H]2C[C@]3(C(=O)NCc4ccccc4)NC[C@H]2[C@H]1[C@H]3Cc1ccccc1 (relative stereo)', 'recombinant rabies virus 1088 strain expressing Gaussia Luciferase (GLuc) (1088/GLuc)', 4.90),
  ('CC(C)C[C@@H]1[C@@H]2[C@@H]3CN[C@@]1(C(=O)NCc1ccc(Cl)c(Cl)c1)C[C@@H]3CN2Cc1ccccc1 (relative stereo)', 'recombinant rabies virus 1088 strain expressing Gaussia Luciferase (GLuc) (1088/GLuc)', 4.94),
  ('CC(C)CNC(=O)[C@]12NC[C@@H]3C[C@H]1CN(Cc1ccccc1)[C@H]2[C@@H]3CC(C)C (relative stereo)', 'recombinant rabies virus 1088 strain expressing Gaussia Luciferase (GLuc) (1088/GLuc)', 4.72),
  ('Cc1ccc(C[C@@H]2[C@@H]3[C@@H]4CN[C@@]2(C(=O)NCc2ccccc2)C[C@@H]4CN3CC(C)C)cc1 (relative stereo)', 'recombinant rabies virus 1088 strain expressing Gaussia Luciferase (GLuc) (1088/GLuc)', 4.85);

Next:
Bench note, recombinant rabies virus 1088 strain expressing Gaussia Luciferase (GLuc) (1088/GLuc): entry Cc1cccc(C[C@@H]2[C@@H]3CN[C@@]4(C(=O)NCc5ccccc5)[C@@H](C3)CN(CC(C)C)[C@@H]24)c1 (relative stereo) , its pIC50 = 4.84

* * *

The following compounds are shown together with reported IC50 values.
# Tested on: recombinant rabies virus 1088 strain expressing Gaussia Luciferase (GLuc) (1088/GLuc)
# Type: cell-based
# condition.info: read-out: IC50
Answer with a number only, understood to be in µM.

INSERT INTO measurements (compound, attribute_measured, value_observed) VALUES
  ('Cc1cccc(C[C@@H]2[C@@H]3[C@@H]4CN[C@@]2(C(=O)NCc2ccccc2)C[C@@H]4CN3CC(C)C)c1 (relative stereo) [IF-13]', 'IC50', 13.1);

Form: compound = CC(C)CCN1C[C@H]2C[C@]3(C(=O)NCc4ccccc4)NC[C@H]2[C@H]1[C@H]3Cc1ccccc1 (relative stereo) [IF-9] ; IC50 = 15.6

Lookup result for CCC1N[C@@]2(C(=O)NCc3ccccc3)C[C@@H]3CN(CC(C)C)[C@@H]([C@H]13)[C@H]2Cc1ccccc1 (relative stereo) [IF-69] ; measured IC50: 16.5

IC50 recorded for this compound, CC(C)C[C@@H]1[C@@H]2CN[C@@]3(C(=O)NCCc4ccccc4)[C@@H](C2)CN(Cc2ccccc2)[C@@H]13 (relative stereo) [IB-12] , is 15.5

Reported IC50 of CC(C)CCN1C[C@@H]2C[C@H]3CN[C@]2(C(=O)NCc2ccccc2)[C@@H]1[C@@H]3Cc1ccccc1 (relative stereo) [IB-9] : 17

Looking up CC(C)CNC(=O)[C@]12NC[C@@H]3C[C@H]1CN(CC(C)C)[C@H]2[C@@H]3Cc1ccccc1 (relative stereo) [IB-3] , I see its IC50 listed as 19.6
